# SYSTEM NAME: Vascular endothelial growth factor receptor 2 (Homo sapiens)
# Sequence (P35968 whole entry): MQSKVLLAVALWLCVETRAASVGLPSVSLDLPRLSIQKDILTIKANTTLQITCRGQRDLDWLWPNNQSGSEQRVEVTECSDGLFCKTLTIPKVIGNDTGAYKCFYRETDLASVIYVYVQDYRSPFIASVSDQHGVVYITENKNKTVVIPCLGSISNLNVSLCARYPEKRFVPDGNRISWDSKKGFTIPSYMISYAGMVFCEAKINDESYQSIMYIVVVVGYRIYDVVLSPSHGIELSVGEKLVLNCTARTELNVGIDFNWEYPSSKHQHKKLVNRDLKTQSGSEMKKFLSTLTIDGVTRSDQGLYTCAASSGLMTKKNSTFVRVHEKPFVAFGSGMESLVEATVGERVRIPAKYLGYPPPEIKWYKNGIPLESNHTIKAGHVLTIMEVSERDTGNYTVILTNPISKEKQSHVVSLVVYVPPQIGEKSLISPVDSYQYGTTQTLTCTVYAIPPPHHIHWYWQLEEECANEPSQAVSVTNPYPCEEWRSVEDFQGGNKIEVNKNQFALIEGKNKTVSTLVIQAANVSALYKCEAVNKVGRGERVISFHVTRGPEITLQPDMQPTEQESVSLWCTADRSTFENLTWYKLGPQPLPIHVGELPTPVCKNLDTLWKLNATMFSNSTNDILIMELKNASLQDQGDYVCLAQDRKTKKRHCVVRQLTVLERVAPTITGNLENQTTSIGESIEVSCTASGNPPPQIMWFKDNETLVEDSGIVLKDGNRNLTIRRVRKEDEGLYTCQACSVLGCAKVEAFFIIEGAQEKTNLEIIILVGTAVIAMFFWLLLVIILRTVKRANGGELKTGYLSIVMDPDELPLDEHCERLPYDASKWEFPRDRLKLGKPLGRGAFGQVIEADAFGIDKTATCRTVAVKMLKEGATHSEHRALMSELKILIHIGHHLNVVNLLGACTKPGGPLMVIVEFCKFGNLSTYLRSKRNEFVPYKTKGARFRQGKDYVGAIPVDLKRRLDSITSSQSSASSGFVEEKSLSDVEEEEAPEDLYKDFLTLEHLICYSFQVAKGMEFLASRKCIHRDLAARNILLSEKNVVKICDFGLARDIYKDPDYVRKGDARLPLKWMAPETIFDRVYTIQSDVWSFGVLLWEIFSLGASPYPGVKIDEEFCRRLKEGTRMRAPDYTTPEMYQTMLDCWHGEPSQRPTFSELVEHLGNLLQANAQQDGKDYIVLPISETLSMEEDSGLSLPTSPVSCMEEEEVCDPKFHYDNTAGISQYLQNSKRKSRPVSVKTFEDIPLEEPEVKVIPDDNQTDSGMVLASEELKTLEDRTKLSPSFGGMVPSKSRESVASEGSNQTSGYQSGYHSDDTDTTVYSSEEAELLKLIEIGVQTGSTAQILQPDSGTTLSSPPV
# PROTOCOL TEXT: Inhibition of VEGFR2 in human RPMI-8226 cells incubated for 2 hrs by ELISA
OUTCOME MEASURE: IC50 (µM)
API: value field is a number in µM; no unit string.

[in] Request body: readout IC50, system Vascular endothelial growth factor receptor 2 (Homo sapiens), query COc1ccc(/C=C/C(=O)c2nnn(-c3ccc(Cl)cc3)c2C)cc1OC . Return the value.
[out] 0.388

----------
# SYSTEM NAME: Histone deacetylase 8 (Homo sapiens, UniProt Q9BY41)
# Sequence (Q9BY41 whole entry): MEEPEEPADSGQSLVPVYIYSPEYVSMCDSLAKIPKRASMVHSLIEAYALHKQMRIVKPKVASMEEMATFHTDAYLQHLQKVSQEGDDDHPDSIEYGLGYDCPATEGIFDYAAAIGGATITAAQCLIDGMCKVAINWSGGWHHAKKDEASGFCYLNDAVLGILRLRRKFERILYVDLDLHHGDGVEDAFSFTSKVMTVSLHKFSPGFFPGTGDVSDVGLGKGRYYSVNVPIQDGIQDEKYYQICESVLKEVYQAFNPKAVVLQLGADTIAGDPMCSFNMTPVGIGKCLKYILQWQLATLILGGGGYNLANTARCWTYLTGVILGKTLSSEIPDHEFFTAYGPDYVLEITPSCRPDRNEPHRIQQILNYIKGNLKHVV
# PROTOCOL TEXT: Inhibition of HDAC8 in human RPMI-8226 cells incubated for 2 hrs by ELISA
OUTCOME MEASURE: IC50 (nM)
Field: numeric (nM). Do not append units.

[in] Which IC50 value is on record for CC(C)C[C@H](NC(=O)[C@H](Cc1ccccc1)NC(=O)c1cnccn1)B(O)O ?
[out] 72

[in] Given the entry COc1ccc(/C=C/C(=O)c2nnn(-c3ccc(Cl)cc3)c2C)cc1OC , report its measured IC50.
[out] 47

Sourced from ChEMBL document CHEMBL4680183
